Measured Endpoint: melting point

Example cases with answers are listed next.
- Molecule: "COc1ccc([C@H]2C=CN(S(=O)(=O)c3ccc(OC)cc3)C(=O)[C@H]2CCC2C=CC=CC2=O)cc1 (stereo not given in full)"
  melting point: "159 to 161 °C"
- Molecule: "O=C(O)C1CCC(c2ccc(O)cc2)CC1 (stereo not given)"
  melting point: "248 to 250 °C"
- Molecule: "CCOC(=O)CC(=O)c1cc(OC)c(OC)c([N+](=O)[O-])c1"
  melting point: "67 to 68 °C"
- Molecule: "COc1ccc(N2CCN(c3c(C)c(C)c4c(c3C)C(c3ccc5ccccc5c3)C(C)(C)O4)CC2)cc1 (stereo not given)"
  melting point: "170 to 171 °C"
- Molecule: "N#Cc1cc(-c2ccc(Cl)cc2)cnc1N"
  melting point: "202 to 204 °C"

Note: attention shifts to another entry.
Recorded result, "N#Cc1ccc2[nH]cc(CCCCN3CCN(c4ccc5oc(C(=O)NO)cc5c4)CC3)c2c1" , melting point: 198 to 199 °C

---

Measured Endpoint: melting point

- Compound: "CC(=CC(C)C)c1ccccc1NC(=O)c1cn(C)nc1C(F)(F)F"
  melting point: "66 to 74 °C"
- Compound: "CC(C)(C)c1cc(C(C)(C)C)c(O)c(C(=O)Nc2ccc(S(=O)(=O)C(F)(F)F)cc2Cl)c1O"
  melting point: "149 to 150 °C"
- Compound: "CC(=O)SCC(C)C(=O)N(CC(=O)O)C1CCCCC1 (stereo not given)"
  melting point: "142 to 144 °C"
- Compound: "CCCCCCCN(Cc1ccc(C(C)(C)C)cc1)C(Nc1ccc(Cl)cc1)=C1C(=O)COC1=O"
  melting point: "101 to 104 °C"
- Compound: "Cc1ccc(-c2cn(C)cc(-c3cccc(C(F)(F)F)c3)c2=O)cc1C"
  melting point: "150 to 153 °C"

Recorded result, "CC(C)(CO)c1ccc(Cl)cc1" , melting point: 46 to 48 °C

Recorded result, COc1ccc(S(=O)(=O)N2c3ccccc3-c3ccccc3C2C)cc1C (stereo not given) , melting point: 171 to 173 °C

---

Reported melting point values for the following molecules.

- Molecule: "Cc1nc2ccc3c(c2o1)OC(CN1CCCCC1)CO3 (stereo not drawn)"
  melting point: "109 to 112 °C"
- Molecule: "O=c1c2c(Cl)cc(Cl)cc2n(Cc2ccccc2)c(=O)n1CC1CCCCC1"
  melting point: "147 to 149 °C"
- Molecule: "O=C(NCC1CCCC1)c1ccc2c(Br)n[nH]c2c1"
  melting point: "119 to 125 °C"
- Molecule: "Cc1noc(NS(=O)(=O)c2ccccc2-c2ccc(-c3ncco3)cc2CN(C)C(=O)c2ccc(Cl)cc2)c1C"
  melting point: "122 to 132 °C"
- Molecule: "CCc1nc2c(cnn2CC)c(NC2CCOCC2)c1CNC(=O)c1cccc(C(=O)NCc2ccc(Cl)c(-c3cccc(CN4CCNCC4)c3)c2)c1"
  melting point: "127 to 130 °C"
- Molecule: "O=C(Nc1ccccc1)Nc1ccnc(F)c1"
  melting point: "179 to 180 °C"
- Molecule: "COCCc1nc2c(N)nc3ccccc3c2n1CCOCCN(C)C(=O)Nc1ccccc1"
  melting point: "185 to 186 °C"

Note: attention shifts to another entry.
Recorded result, "CC(C)[C@H](NC(=O)OCc1cccnc1)C(=O)N[C@@H](Cc1ccccc1)[C@@H](O)[C@@H](O)[C@H](Cc1ccccc1)NC(=O)OC(C)(C)C" , melting point: 175 to 178 °C

FYI, the data here is from a melting point compilation (Tetko et al.; mined from patent text by program, amines drawn as free bases though some values may be those of a salt).
